FYI, the data here is from ChEMBL document CHEMBL6087425.

test system: Giardia intestinalis; test: Anti-parasitic activity against Giardia intestinalis assemblage A ATCC 30957 trophozoites assessed as inhibition of parasite growth incubated for 24 hrs; type: functional, organism-based; settings: Giardia duodenalis, assemblage A ATCC 30957, 24 h
measuredProperty: pIC50
# pIC50: negative log10 of molar concentration; output just the value

Answered examples (4):
- molecularString: "Cc1ncc([N+](=O)[O-])n1CCO"
  assayTarget: "Giardia intestinalis"
  measuredProperty: "pIC50"
  numericValue: 5.40
- molecularString: "CCC(CC)O[C@@H]1CC(C(=O)O)=C[C@H](N)[C@H]1NC(C)=O"
  assayTarget: "Giardia intestinalis"
  measuredProperty: "pIC50"
  numericValue: 4.31
- molecularString: "CCOC(=O)C1=C[C@H](NC(=O)CF)[C@@H](NC(C)=O)[C@H](OC(CC)CC)C1"
  assayTarget: "Giardia intestinalis"
  measuredProperty: "pIC50"
  numericValue: 4.27
- molecularString: "CCCC(=O)N[C@@H]1[C@@H](N=[N+]=[N-])C=C(C(=O)O)C[C@H]1OC(CC)CC"
  assayTarget: "Giardia intestinalis"
  measuredProperty: "pIC50"
  numericValue: 4.29

Problem: Tell me the measured pIC50 of CCC(CC)O[C@@H]1CC(C(=O)O)=C[C@H](N=[N+]=[N-])[C@H]1NC(C)=O , please.
Result: 4.52

Problem: Tell me the measured pIC50 of CCC(CC)O[C@@H]1CC(C(=O)O)=C[C@H](NC(C)=O)[C@H]1NC(C)=O , please.
Result: 4.40
